Tested on: XIP peptide (Xip251-270)
protocol.details: compounds binding XIP fragment 251-270 – biochemical, small-molecule microarray, fluorescence 635/667 nm, 0.5 µg/mL protein, primary screen (AID 1183)
experimental.setup: fluorescence 635 nm, higher = more signal
Assign composite z-score to each entry below.

Query: Name the recorded composite z-score for `COCCOC(=O)N1C(=O)[C@@]2(c3cc(C#CCCO)ccc31)[C@H](c1ccc(O)cc1)N1[C@H](c3ccccc3)[C@H](c3ccccc3)OC(=O)[C@H]1[C@@H]2C(=O)N1CCCCCCC1` .
Reply: 0.723

Query: Same for C=CCC(OC(C)=O)[C@@H]1[C@@H](N(Cc2cc3ccccc3o2)C(=O)c2cccc3ccccc23)c2cc(OCCCO)ccc2N1C(=O)Cc1ccc2ccccc2c1 (stereo not given in full)
Reply: -0.102

Query: Same for Cn1c2c(c3ccccc31)C(=O)C1NC2C=CC1(C)C(=O)OCc1ccccc1 (stereo not given)
Reply: -0.416

Query: Same for `CC[C@@H]1C=C(C(=O)O)[C@H](c2ccc(C(C)C)cc2)N1S(=O)(=O)c1ccc(C)cc1`
Reply: 0.924

Query: Same for `CCCCC(=O)N(Cc1ccccc1F)[C@@H]1CC(C(=O)NCCO)=C[C@H](Oc2c(I)cc(CO)cc2OC)[C@H]1O`
Reply: 0.704

Query: Same for `C=CCNC(=O)[C@H]1[C@@H]2C(=O)O[C@@H](c3ccccc3)[C@@H](c3ccccc3)N2[C@@H](c2ccc(O)cc2)[C@]12C(=O)Nc1ccc(C#Cc3ccc(OC)cc3)cc12`
Reply: 0.779

Query: Same for `COc1ccc([Si](C)(C)[C@@H]2[C@@H](CCn3cc([C@H](O)c4ccccc4)nn3)O[C@]3(C(=O)N(C)c4ccccc43)[C@H]2C)cc1`
Reply: 0.679

Query: Same for `CCOC(=O)C1=CC[C@@H](c2ccccc2)N(S(=O)(=O)c2ccc(C)cc2)[C@H]1c1ccc(C#N)cc1`
Reply: 0.728

Query: Same for O=C(NCC(O)CO)[C@]1(CCS(=O)(=O)c2ccccc2)N=C(c2ccc(OCCCO)cc2)O[C@@H]1c1ccccc1 (stereo not given in full)
Reply: -0.0557

Query: Same for `COc1cc(CO)cc(I)c1O[C@H]1C=C(C(=O)NCCO)C[C@@H](N(CCc2cccc(F)c2)C(=O)CCC2CCCC2)[C@@H]1O`
Reply: 0.65

Query: Same for `COc1ccc([Si](C)(C)[C@@H]2[C@@H](CCO)O[C@]3(C(=O)N(Cc4ccc(N5C(=O)c6cccc7cccc5c67)cc4)c4ccccc43)[C@H]2C)cc1`
Reply: 0.596

Query: Same for CCN(CC)c1ccc(N2CC=CC34O[C@@H]5/C=C\CCC(C)OC(=O)C5[C@H]3C(=O)N(CCCCCCO)[C@@H]4C2=O)cc1 (stereo not given in full)
Reply: -0.0479

Query: Same for `C[N+](C)(C)CCCCNC(=O)[C@H]1C[C@H]2C(=O)N3CCC[C@H]3C(=O)N2[C@H]1c1ccc(O)cc1`
Reply: 0.806

Query: Same for `COc1c(C)cc(-c2cc3c(c(-c4ccccc4)n2)[Si](C(C)C)(C(C)C)O[C@H]3c2ccccc2)cc1C`
Reply: -0.029

Query: Same for `C=C(C(=O)CC[C@H](OC(=O)c1cccnc1)c1ccccc1OCCO)C(C)C`
Reply: 0.564

Query: Same for `C[n+]1ccc2ccc(O)cc2c1`
Reply: 0.612

Query: Same for `NC(=O)NCC#Cc1ccc2c(c1)[C@]1(C(=O)N2)[C@H](c2ccccc2OCCO)N2[C@H](c3ccccc3)[C@H](c3ccccc3)OC(=O)[C@H]2[C@@H]1C(=O)N1CCCCCCC1`
Reply: 0.633

Query: Same for `O=C1C[C@@](C(=O)O)(c2ccc([N+](=O)[O-])cc2)[C@@H](c2ccc(CO)cc2I)N1CC12CC3CC(CC(C3)C1)C2`
Reply: 0.771

Query: Same for `CCOC(=O)C[C@H]1[C@H](OC(=O)c2ccccc2-c2ccccc2)[C@@H](NC(=O)c2ccc(-c3ccccc3)cc2)c2cc(OCCCO)ccc2N1C(=O)c1ccccc1`
Reply: 0.79

Query: Same for `COCCCNC(=O)[C@]1(Cc2ccccc2N=[N+]=[N-])N=C(c2ccc(OCCCO)cc2)O[C@@H]1c1ccccc1CN=[N+]=[N-]`
Reply: 0.758

Query: Same for `O=C(NCc1ccccc1)[C@@H]1c2ccccc2C(=O)N(Cc2cc(F)cc(C(F)(F)F)c2)[C@H]1c1ccc(CO)cc1`
Reply: 0.941

Query: Same for O=C1C2C=CC(C(O)c3ccc(-c4ccccc4)s3)N(Nc3ccccc3F)C2C(=O)N1c1ccccc1 (stereo not given)
Reply: 0.734

Query: Same for `C=CCCN(CC#C[C@H]1Oc2ccccc2S(=O)(=O)N2CCC[C@@H]12)S(=O)(=O)c1ccc(C)cc1`
Reply: -0.0455

Query: Same for O=C1NC(=O)C2C1C=CC(C(O)c1cccs1)N2Nc1ccccn1 (stereo not given)
Reply: 0.438

Query: Same for COc1ccc(C(O)C2C=CC3C(=O)N(c4ccccc4)C(=O)C3N2Nc2ccccc2)c2ccccc12 (stereo not given)
Reply: 0.573

Query: Same for `Cc1ccc(S[C@]2(C(=O)NCC(C)C)CC(=O)N(Cc3ccccc3)[C@@H]2c2ccc(CO)cc2)cc1`
Reply: 0.404

Query: Same for `CCCNC(=O)[C@@]1(C)c2ccccc2C(=O)N(Cc2cc(C(F)(F)F)cc(C(F)(F)F)c2)[C@H]1c1ccc(CO)cc1`
Reply: 0.665

Query: Same for `C=C(/C(=C/C[C@@H](OC(C)=O)c1ccc(CO)o1)c1cnc2ccccc2c1)C(C)C`
Reply: 0.764

Query: Same for `[N-]=[N+]=NCc1ccccc1[C@@H]1OC(c2ccc(OCCCO)cc2)=N[C@]1(Cc1ccccc1N=[N+]=[N-])C(N)=O`
Reply: 0.785

Query: Same for CCCCN1CC=CC23O[C@@H]4/C=C\CCCOC(=O)C4[C@H]2C(=O)N(C(C)CO)[C@@H]3C1=O (stereo not given in full)
Reply: -0.269
